Give measured Ki for each item. Keep answers brief.
study-target: UniProt P08172
Sequence (P08172 whole entry): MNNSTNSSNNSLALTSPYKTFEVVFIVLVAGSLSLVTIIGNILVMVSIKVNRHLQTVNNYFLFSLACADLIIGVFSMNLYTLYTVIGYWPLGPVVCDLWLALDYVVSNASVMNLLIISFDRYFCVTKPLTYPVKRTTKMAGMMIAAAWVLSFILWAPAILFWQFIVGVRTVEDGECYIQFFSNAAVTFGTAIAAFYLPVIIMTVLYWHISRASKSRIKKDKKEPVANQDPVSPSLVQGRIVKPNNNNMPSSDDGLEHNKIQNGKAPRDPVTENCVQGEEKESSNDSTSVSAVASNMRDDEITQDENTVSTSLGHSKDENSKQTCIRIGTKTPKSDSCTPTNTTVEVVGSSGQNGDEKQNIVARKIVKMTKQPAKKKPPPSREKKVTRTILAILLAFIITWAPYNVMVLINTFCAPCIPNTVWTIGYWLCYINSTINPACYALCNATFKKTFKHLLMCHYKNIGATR
assay-name: Displacement of [3H]-NMS from human muscarinic M2 receptor expressed in CHO-K9 cells after 3 hrs by microbeta2 scintillation counting method
Format: cell-based

// query Quick check: Ki of CC(=O)N[C@@H](CCCCN)C(=O)N[C@@H](C)C(=O)N[C@@H](CCCNC(=N)N)C(=O)NCCCCC1CCN(CC(=O)N2c3ccccc3NC(=O)c3ccccc32)CC1 ?
// result 7.76 nM

// query Consider the compound shown here: CC(=O)N[C@@H](C)C(=O)N[C@@H](C)C(=O)NCCCCC1CCN(CC(=O)N2c3ccccc3NC(=O)c3ccccc32)CC1 What is its recorded Ki?
// result 22.9 nM

// query What does the data say about its Ki? Entry: CC(=O)N[C@@H](Cc1c[nH]c2ccccc12)C(=O)N[C@@H](C)C(=O)N[C@@H](Cc1ccc(O)cc1)C(=O)NCCN1CCN(CCCCC2CCN(CC(=O)N3c4ccccc4NC(=O)c4ccccc43)CC2)CC1
// result 0.0794 nM

// query Fill blank: measured Ki of the compound CC(=O)N[C@@H](CCCNC(=N)N)C(=O)N[C@@H](CCCCN)C(=O)NCC(=O)NCCCCC1CCN(CC(=O)N2c3ccccc3NC(=O)c3ccccc32)CC1 is ____.
// result 1.48 nM

// query # query: Ki of entry CC(=O)N[C@@H](CCC(N)=O)C(=O)N[C@@H](CC(C)C)C(=O)NCCCCC1CCN(CC(=O)N2c3ccccc3NC(=O)c3ccccc32)CC1
// result 309 nM

// query Report Ki for CC(=O)N[C@@H](C)C(=O)N[C@@H](C)C(=O)NCCN1CCN(CCCCC2CCN(CC(=O)N3c4ccccc4NC(=O)c4ccccc43)CC2)CC1 please.
// result 0.427 nM
